- Tested on: BT-549 breast
- testMethodNotes: NCI-60 one-dose screen, 48 h (100 = growth as untreated, 0 = no growth, -100 = all killed)
- details: 10 µM unless noted
About 83,000 compounds went through this panel and 20% of them were active in at least one assay; those are over-represented in the sample as a whole. Calls of active or inactive are those of the source. Rule for the calls: active = growth percent below 10; inactive = the rest.
Reported growth values for a set of compounds

As a guide, the following entries are already answered.
compound	targetOrSystem	growth
CC1CCC2(OC1)OC1CC3C4CC=C5CC(O)CCC5(C)C4CCC3(C)C1C2C (configuration not stated)	BT-549 breast	130% (inactive)
O=C(/C=C/c1ccccc1)c1ccccc1	BT-549 breast	126% (inactive)
O=C1OC(c2ccccc2)=N/C1=C\c1ccccc1	BT-549 breast	96.3% (inactive)
CCCCOC(=O)/C=C\C(=O)NC(N)=O	BT-549 breast	63.5% (inactive)
Brc1ccc(SSc2ccc(Br)cc2)cc1	BT-549 breast	29.4% (inactive)

# input compound: `CC(C)(O)C(=O)O` ; wanted: its growth
103% (inactive)

# input compound: `Oc1ccc(Cc2ccccc2Cl)c(O)c1` ; wanted: its growth
99.2% (inactive)
